# test_target: ADRB1 (Homo sapiens (Human), UniProt P08588)
# Sequence (P08588 whole entry, the tested form may be a part): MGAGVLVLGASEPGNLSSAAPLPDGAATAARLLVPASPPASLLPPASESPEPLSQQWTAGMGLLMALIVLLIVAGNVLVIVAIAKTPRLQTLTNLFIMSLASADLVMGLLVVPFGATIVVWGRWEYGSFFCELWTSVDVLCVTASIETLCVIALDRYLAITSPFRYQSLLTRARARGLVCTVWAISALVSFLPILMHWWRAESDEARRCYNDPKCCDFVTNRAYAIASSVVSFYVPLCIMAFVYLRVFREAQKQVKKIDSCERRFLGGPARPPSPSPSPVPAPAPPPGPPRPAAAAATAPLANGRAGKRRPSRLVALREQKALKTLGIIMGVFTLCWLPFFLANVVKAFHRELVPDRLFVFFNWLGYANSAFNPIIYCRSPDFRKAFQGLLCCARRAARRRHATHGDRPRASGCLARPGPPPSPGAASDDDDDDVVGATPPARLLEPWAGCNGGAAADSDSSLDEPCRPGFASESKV
# protocol_notes: β-arrestin assay (PathHunter enzyme fragment complementation, CHO-K1-ADRB1 cells)
# Assay type: cell-based
# settings: read-out: EC50 at the β-arrestin pathway via ADRB1
property_name: EC50 (nM)
Numeric only. Scale: nM

Give reported EC50 value for COc1ccc(CCNCC(O)COc2ccc(O)c(O)c2)cc1OC (stereo not shown) [Compound 50] 32.2

---

# test_target: ADRB1 (Homo sapiens (Human), UniProt P08588)
# protocol_notes: cAMP assay (homogenous time-resolved fluorescence) in HEK-293 cells stably expressing human recombinant ADRB1
# Assay type: cell-based
# settings: Table 4; read-out: cAMP pathway ADRB1 EC50
property_name: EC50

Give reported EC50 value for `O=C(NCCNC[C@H](O)COc1ccc(O)cc1)N1CC(O)C1` 100 to 1000 nM

Give reported EC50 value for `O=C(CCCNC[C@H](O)COc1ccc(O)cc1)N1CCOCC1` 10 to 100 nM

Give reported EC50 value for `O=C(CCNC[C@H](O)COc1ccc(O)cc1)N1CCOCC1` 100 to 1000 nM

Give reported EC50 value for `COc1ccc(CCOCCNC[C@H](O)COc2ccc(O)cc2)cc1OC` 100 to 1000 nM

Give reported EC50 value for COc1ccc(CCNCC(O)COc2ccc(O)c(O)c2)cc1OC (stereo not drawn) 1 to 10 nM

Give reported EC50 value for `COc1ccccc1OCCNC[C@H](O)COc1ccc(O)cc1` 10 to 100 nM
